From: patent US20250034173A1

- assay.target: UniProt:P01116
- assay.notes: SPR binding affinity and kinetics, GTPγS-loaded KRAS Wild Type
- condition.description: GTPγS loaded protein, geomean
observed.property: Kd (nM)

Consider the following illustrative entries.
[[record]]
molecule = "C=C1CN2CCC[C@@]2(COc2nc3c4c(nc(-c5c(C6(C)CC6)c(Cl)cc6[nH]ncc56)c(F)c4n2)OC[C@@H]2COCCCN32)C1 [Example 39]"
assay_target = "UniProt:P01116"
reported_result = 2

[[record]]
molecule = "C[C@@H]1CCCc2cc3[nH]ncc3c(-c3nc4c5c(nc(OC[C@@]67CCCN6CC(=C6COC6)C7)nc5c3F)N3CCCOC[C@H]3CO4)c21 [Example 47]"
assay_target = "UniProt:P01116"
reported_result = 3

[[record]]
molecule = "COC/C=C1\\CN2CCC[C@@]2(COc2nc3c4c(nc(-c5c6c(cc7[nH]ncc57)CCC[C@H]6C)c(F)c4n2)OC[C@@H]2COCCCN32)C1 [Example 37]"
assay_target = "UniProt:P01116"
reported_result = 3

[[record]]
molecule = "C=C1CN2CCC[C@@]2(COc2nc3c4c(nc(-c5c(C6CC6)ccc6[nH]ncc56)c(F)c4n2)OC[C@@H]2COCCCN32)C1 [Example 20]"
assay_target = "UniProt:P01116"
reported_result = 91


(a) C=C1CN2CCC[C@@]2(COc2nc3c4c(nc(-c5c([C@H]6C[C@H]6C)c(Cl)cc6[nH]ncc56)c(F)c4n2)OC[C@@H]2COCCCN32)C1 (single isomer, unassigned) [Example 31]
(b) C=C1CN2CCC[C@@]2(COc2nc3c4c(nc(-c5c(C(F)(F)F)c(Cl)cc6[nH]ncc56)c(F)c4n2)OC[C@@H]2COCCCN32)C1 [Example 13]
Ask: Which has the smaller recorded Kd, a or b ? Please identify the chosen entry by its label.
Result: b

---

- Tested on: H358 (non-small cell lung cancer cell line)
- assay.notes: KRAS Cell Titer Glo (CTG) cell proliferation assay, H358
- Type: cell-based
- condition.description: Homo sapiens, NCI-H358, 168 h; H358 cells, 7-day CTG, geomean IC50
observed.property: IC50 (µM)

[[record]]
compound = "C=C1CN2CCC[C@@]2(COc2nc3c4c(nc(-c5c(C(F)(F)F)c(Cl)cc6[nH]ncc56)c(F)c4n2)OC[C@@H]2COCCCN32)C1 [Example 13]"
assay_target = "H358 (non-small cell lung cancer cell line)"
unit_descriptor = "µM"
reported_result = 0.026

[[record]]
compound = "C=C1CN2CCC[C@@]2(COc2nc3c4c(nc(-c5c(C6CC6)ccc6[nH]ncc56)c(F)c4n2)OC[C@@H]2COCCCN32)C1 [Example 20]"
assay_target = "H358 (non-small cell lung cancer cell line)"
unit_descriptor = "µM"
reported_result = 0.275


(a) C=C1CN2CC(F)C[C@@]2(COc2nc3c4c(nc(-c5c(C6CC6)c(Cl)cc6[nH]ncc56)c(F)c4n2)OC[C@@H]2COCCCN32)C1 (stereo partly drawn) [Example 14]
(b) C=C1CN2CCC[C@@]2(COc2nc3c4c(nc(-c5c(C6(C)CC6)c(Cl)cc6[nH]ncc56)c(F)c4n2)OC[C@@H]2COCCCN32)C1 [Example 39]
(c) C=C1CN2CCC[C@@]2(COc2nc3c4c(nc(-c5c(Cl)c(C)cc6[nH]ncc56)c(F)c4n2)OC[C@@H]2COCCCN32)C1 [Example 8]
(d) Fc1c(-c2c(C3CC3)c(Cl)cc3[nH]ncc23)nc2c3c(nc(OC[C@@]45C[C@@H](F)CN4CC4(CC4)C5)nc13)N1CCCOC[C@H]1CO2 [Example 35]
Ask: // ranking: key=IC50, reverse=True Output spec: a listing of the labels in the requested order.
Result: c, d, a, b

---

- assay.target: KRAS G12D (Homo sapiens (Human), UniProt P01116, G12D)
- Sequence (P01116 other isoform, or with tags, fused parts or gaps G12D): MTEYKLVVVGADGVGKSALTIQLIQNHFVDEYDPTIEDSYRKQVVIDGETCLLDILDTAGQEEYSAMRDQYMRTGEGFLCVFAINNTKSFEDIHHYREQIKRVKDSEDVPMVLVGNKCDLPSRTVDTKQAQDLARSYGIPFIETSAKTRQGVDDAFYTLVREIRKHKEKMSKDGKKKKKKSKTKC
- assay.notes: SPR binding affinity and kinetics, GTPγS-loaded KRAS G12D
- condition.description: GTPγS loaded protein, geomean
pKd: −log10 of the molar value.
observed.property: pKd

[[record]]
molecule = "Fc1c(-c2c(C3CC3)c(Cl)cc3[nH]ncc23)nc2c3c(nc(OC[C@@]45C[C@@H](F)CN4CC4(CC4)C5)nc13)N1CCCOC[C@H]1CO2 [Example 35]"
assay_target = "KRAS G12D (Homo sapiens (Human), UniProt P01116, G12D)"
reported_result = 8.10


(a) C=C1CN2CCC[C@@]2(COc2nc3c4c(nc(-c5c([C@H]6C[C@H]6C)c(Cl)cc6[nH]ncc56)c(F)c4n2)OC[C@@H]2COCCCN32)C1 (single isomer, unassigned) [Example 31]
(b) C=C1CN2CCC[C@@]2(COc2nc3c4c(nc(-c5c6c(cc7[nH]ncc57)CCC[C@H]6C)c(F)c4n2)OC[C@@H]2COCCCN32)C1 [Example 29]
Ask: Would you let me know which has the greater pKd value, a or b ? Please identify the chosen entry by its label.
Result: b
(b: 9.00, a: 8.22)

---

- assay.target: KRAS Wild Type (Homo sapiens (Human))
- Sequence (P01116 other isoform, or with tags, fused parts or gaps): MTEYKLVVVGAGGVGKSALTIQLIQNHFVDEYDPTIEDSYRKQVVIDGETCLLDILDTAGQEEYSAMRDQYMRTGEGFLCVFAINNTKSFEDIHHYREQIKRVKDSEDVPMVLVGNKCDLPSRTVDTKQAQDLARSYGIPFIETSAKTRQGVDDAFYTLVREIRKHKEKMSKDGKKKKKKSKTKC
- assay.notes: SPR binding affinity and kinetics, GTPγS-loaded KRAS Wild Type
- condition.description: GTPγS loaded protein, geomean
observed.property: Kd (nM)

Consider the following illustrative entries.
[[record]]
smiles_data = "C=C1CN2CCC[C@@]2(COc2nc3c4c(nc(-c5c6c(cc7[nH]ncc57)CCC[C@@H]6C)c(F)c4n2)OC[C@@H]2COCCCN32)C1"
unit_descriptor = "nM"
reported_result = 46

[[record]]
smiles_data = "C/C=C1\\CN2CCC[C@@]2(COc2nc3c4c(nc(-c5c(C6CC6)c(Cl)cc6[nH]ncc56)c(F)c4n2)OC[C@@H]2COCCCN32)C1"
unit_descriptor = "nM"
reported_result = 2

[[record]]
smiles_data = "C=C1CN2CCC[C@@]2(COc2nc3c4c(nc(-c5c(Cl)c(Cl)cc6[nH]ncc56)c(F)c4n2)OC[C@@H]2COCCCN32)C1"
unit_descriptor = "nM"
reported_result = 40

[[record]]
smiles_data = "C=C1CN2CCC[C@@]2(COc2nc3c4c(nc(-c5c(C6CC6)c(Cl)cc6[nH]ncc56)c(F)c4n2)OC[C@@H]2COCCCN32)C1"
unit_descriptor = "nM"
reported_result = 5

[[record]]
smiles_data = "F/C=C1/CN2CCC[C@@]2(COc2nc3c4c(nc(-c5c(C6CC6)c(Cl)cc6[nH]ncc56)c(F)c4n2)OC[C@@H]2COCCCN32)C1"
unit_descriptor = "nM"
reported_result = 4


(P) C=C1CN2CCC[C@@]2(COc2nc3c4c(nc(-c5c(Cl)ccc6[nH]ncc56)c(F)c4n2)OC[C@@H]2COCCCN32)C1
(Q) C=C1CN2CCC[C@@]2(COc2nc3c4c(nc(-c5c(C)ccc6[nH]ncc56)c(F)c4n2)OC[C@@H]2COCCCN32)C1
(R) Fc1c(-c2c(C3CC3)c(Cl)cc3[nH]ncc23)nc2c3c(nc(OC[C@@]45CCCN4CC4(CC4)C5)nc13)N1CCCOC[C@H]1CO2
Ask: // ranking: key=Kd, reverse=True Output spec: a listing of the labels in the requested order.
Result: Q, P, R

(A) CN(C)C(=O)/C=C1\CN2CCC[C@@]2(COc2nc3c4c(nc(-c5c(C6CC6)c(Cl)cc6[nH]ncc56)c(F)c4n2)OC[C@@H]2COCCCN32)C1
(B) C=C1CN2CCC[C@@]2(COc2nc3c4c(nc(-c5c6c(cc7[nH]ncc57)CCC[C@H]6C)c(F)c4n2)OC[C@@H]2COCCCN32)C1
Ask: Which has the smaller recorded Kd, A or B ? Please identify the chosen entry by its label.
Result: B

---

- assay.target: KRAS G12D (Homo sapiens (Human), UniProt P01116, G12D)
- assay.notes: SPR binding affinity and kinetics, GTPγS-loaded KRAS G12D
- condition.description: GTPγS loaded protein, geomean
observed.property: Kd (nM)

Consider the following illustrative entries.
[[record]]
molecule = "C=C1CN2CCC[C@@]2(COc2nc3c4c(nc(-c5c(C(F)(F)F)c(Cl)cc6[nH]ncc56)c(F)c4n2)OC[C@@H]2COCCCN32)C1"
assay_target = "KRAS G12D (Homo sapiens (Human), UniProt P01116, G12D)"
reported_result = 1

[[record]]
molecule = "C=C1CN2CCC[C@@]2(COc2nc3c4c(nc(-c5c(C(F)F)ccc6[nH]ncc56)c(F)c4n2)OC[C@@H]2COCCCN32)C1"
assay_target = "KRAS G12D (Homo sapiens (Human), UniProt P01116, G12D)"
reported_result = 2550

[[record]]
molecule = "Fc1c(-c2c(C3CC3)c(Cl)cc3[nH]ncc23)nc2c3c(nc(OC[C@@]45CCCN4C[C@H](F)C5)nc13)N1CCCOC[C@H]1CO2"
assay_target = "KRAS G12D (Homo sapiens (Human), UniProt P01116, G12D)"
reported_result = 10

[[record]]
molecule = "COC/C=C1\\CN2CCC[C@@]2(COc2nc3c4c(nc(-c5c6c(cc7[nH]ncc57)CCC[C@H]6C)c(F)c4n2)OC[C@@H]2COCCCN32)C1"
assay_target = "KRAS G12D (Homo sapiens (Human), UniProt P01116, G12D)"
reported_result = 2

[[record]]
molecule = "C=C1CN2CCC[C@@]2(COc2nc3c4c(nc(-c5c(Cl)ccc6[nH]ncc56)c(F)c4n2)OC[C@@H]2COCCCN32)C1"
assay_target = "KRAS G12D (Homo sapiens (Human), UniProt P01116, G12D)"
reported_result = 467

[[record]]
molecule = "COC/C=C1\\CN2CCC[C@@]2(COc2nc3c4c(nc(-c5c(C6CC6)c(Cl)cc6[nH]ncc56)c(F)c4n2)OC[C@@H]2COCCCN32)C1"
assay_target = "KRAS G12D (Homo sapiens (Human), UniProt P01116, G12D)"
reported_result = 1

[[record]]
molecule = "Fc1c(-c2c(C3CC3)c(Cl)cc3[nH]ncc23)nc2c3c(nc(OC[C@@]45CCCN4CC4(CC4)C5)nc13)N1CCCOC[C@H]1CO2"
assay_target = "KRAS G12D (Homo sapiens (Human), UniProt P01116, G12D)"
reported_result = 34

[[record]]
molecule = "F/C=C1/CN2CCC[C@@]2(COc2nc3c4c(nc(-c5c(C6CC6)c(Cl)cc6[nH]ncc56)c(F)c4n2)OC[C@@H]2COCCCN32)C1"
assay_target = "KRAS G12D (Homo sapiens (Human), UniProt P01116, G12D)"
reported_result = 2


(P) Fc1c(-c2c(Cl)c(Cl)cc3[nH]ncc23)nc2c3c(nc(OC[C@@]45CCCN4C[C@H](F)C5)nc13)N1CCCC[C@H]1CO2
(Q) C=C1CN2CCC[C@@]2(COc2nc3c4c(nc(-c5c(C(F)(F)F)ccc6[nH]ncc56)c(F)c4n2)OC[C@@H]2COCCCN32)C1
(R) C=C1CN2CCC[C@@]2(COc2nc3c4c(nc(-c5c([C@@H]6C[C@@H]6C)c(Cl)cc6[nH]ncc56)c(F)c4n2)OC[C@@H]2COCCCN32)C1 (single isomer, unassigned)
(S) Fc1c(-c2c(C3CC3)c(Cl)cc3[nH]ncc23)nc2c3c(nc(OC[C@@]45CCCN4CC(=C4CC4)C5)nc13)N1CCCOC[C@H]1CO2
Ask: Ascending by Kd, please: list the molecules accordingly. Output spec: a listing of the labels in the requested order.
Result: R, S, Q, P
(R: 2 nM, S: 4 nM, Q: 42 nM, P: 2030 nM)

(I) C=C1CN2CCC[C@@]2(COc2nc3c4c(nc(-c5c6c(cc7[nH]ncc57)CCCC6)c(F)c4n2)OC[C@@H]2COCCCN32)C1
(II) C=C1CN2CCC[C@@]2(COc2nc3c4c(nc(-c5c(C6CC6)c(Cl)cc6[nH]nc(Cl)c56)c(F)c4n2)OC[C@@H]2COCCCN32)C1
Ask: Would you let me know which has the greater Kd value, I or II ? Please identify the chosen entry by its label.
Result: I

(I) C=C1CN2CCC[C@@]2(COc2nc3c4c(nc(-c5c(C)ccc6[nH]ncc56)c(F)c4n2)OC[C@@H]2COCCCN32)C1
(II) C=C1CN2CCC[C@@]2(COc2nc3c4c(nc(-c5c([C@@H]6C[C@H]6C)c(Cl)cc6[nH]ncc56)c(F)c4n2)OC[C@@H]2COCCCN32)C1 (single isomer, unassigned)
Ask: Which has the smaller recorded Kd, I or II ? Please identify the chosen entry by its label.
Result: II
(II: 6 nM, I: 1240 nM)

(a) C=C1CN2CCC[C@@]2(COc2nc3c4c(nc(-c5c(CC)c(Cl)cc6[nH]ncc56)c(F)c4n2)OC[C@@H]2COCCCN32)C1
(b) CN(C)C(=O)/C=C1\CN2CCC[C@@]2(COc2nc3c4c(nc(-c5c(C6CC6)c(Cl)cc6[nH]ncc56)c(F)c4n2)OC[C@@H]2COCCCN32)C1
(c) Fc1c(-c2c(C3CC3)c(Cl)cc3[nH]ncc23)nc2c3c(nc(OC[C@@]45CCCN4CC(=C4CCOCC4)C5)nc13)N1CCCOC[C@H]1CO2
(d) C/C=C1\CN2CCC[C@@]2(COc2nc3c4c(nc(-c5c(C6CC6)c(Cl)cc6[nH]ncc56)c(F)c4n2)OC[C@@H]2COCCCN32)C1
Ask: // ranking: key=Kd, reverse=True Output spec: a listing of the labels in the requested order.
Result: b, c, a, d
(b: 493 nM, c: 24 nM, a: 6 nM, d: 1 nM)

(a) C=C1CN2CCC[C@@]2(COc2nc3c4c(nc(-c5c(C(C)C)c(Cl)cc6[nH]ncc56)c(F)c4n2)OC[C@@H]2COCCCN32)C1
(b) COC/C=C1/CN2CCC[C@@]2(COc2nc3c4c(nc(-c5c(C6CC6)c(Cl)cc6[nH]ncc56)c(F)c4n2)OC[C@@H]2COCCCN32)C1 (relative stereo) [Example 49]
Ask: Would you let me know which has the greater Kd value, a or b ? Please identify the chosen entry by its label.
Result: b
